# measured-on: mUSP18 (Mus musculus, UniProt Q9WTV6)
# Construct: (46-368); His-tag (N); made in house
# Sequence (Q9WTV6 46-368): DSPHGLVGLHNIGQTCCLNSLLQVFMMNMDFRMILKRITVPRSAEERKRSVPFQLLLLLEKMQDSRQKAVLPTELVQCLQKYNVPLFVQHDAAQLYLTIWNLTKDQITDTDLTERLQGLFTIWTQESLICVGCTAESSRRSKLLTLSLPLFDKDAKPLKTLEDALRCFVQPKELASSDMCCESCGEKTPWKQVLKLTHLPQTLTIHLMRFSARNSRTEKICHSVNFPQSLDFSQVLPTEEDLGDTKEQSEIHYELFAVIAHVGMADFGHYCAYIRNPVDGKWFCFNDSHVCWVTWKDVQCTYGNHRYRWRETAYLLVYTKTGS
# test-method-notes: High-throughput screening, ISG15ct-RhoMP, single dose 1.25 µM
# Format: biochemical, murine
# condition-parameters: mUSP18 %inhibition; carboxylic acid (CA) building block alone; read-out: %inh CA only
parameter-measured: inhibition at 1.25 µM

*Q* Entry O=C(O)C1CCCN1C(=O)Cc1ccccc1 (stereo not shown) has what inhibition at 1.25 µM?
*A* 2.77%

*Q* # inhibition at 1.25 µM lookup, item Cc1ccc(Oc2ccc(C(=O)O)nc2)cc1
*A* -2.93%

*Q* So what's the measured inhibition at 1.25 µM for this one? O=C(O)C1CCN(c2ncccn2)CC1
*A* -4.93%

For each of the compounds below, note its inhibition at 1.25 µM.
1. CN(Cc1ccnn1C)C(=O)C1CCCCC1C(=O)O (stereo not shown)
2. O=C(O)c1ccc(/N=N/c2ccccc2)cc1

*A*
1. 5.25%
2. 3.44%

---

Exercise: state measured inhibition at 1.25 µM for each of the compounds provided.
# measured-on: mUSP18 (Mus musculus, UniProt Q9WTV6)
# Construct: (46-368); His-tag (N); made in house
# test-method-notes: High-throughput screening, ISG15ct-RhoMP, single dose 1.25 µM
# Assay type: biochemical, murine
# condition-parameters: mUSP18 %inhibition; carboxylic acid (CA) with coupling reagents DIC/HOBT; read-out: %inh CA + DIC/HOBT
# include the unit after the value

Observe how each entry below is paired with its result.
*Q* Item under review: CN(Cc1ccnn1C)C(=O)C1CCCCC1C(=O)O (stereo not shown) . Reported inhibition at 1.25 µM?
*A* 7.6%

*Q* // lookup inhibition at 1.25 µM for O=C(O)c1cccnc1-n1cncn1
*A* 7.93%

Hey, quick one: what's inhibition at 1.25 µM for each of these?
1. Cn1cc(-c2ccc(C(=O)O)o2)cn1
2. Cc1onc(-c2ccncc2)c1C(=O)O

*A*
6.42%
-3.66%

---

# measured-on: UCHL3 (Homo sapiens, UniProt P15374)
# Construct: (1-230); made in house
# Sequence (P15374 whole entry): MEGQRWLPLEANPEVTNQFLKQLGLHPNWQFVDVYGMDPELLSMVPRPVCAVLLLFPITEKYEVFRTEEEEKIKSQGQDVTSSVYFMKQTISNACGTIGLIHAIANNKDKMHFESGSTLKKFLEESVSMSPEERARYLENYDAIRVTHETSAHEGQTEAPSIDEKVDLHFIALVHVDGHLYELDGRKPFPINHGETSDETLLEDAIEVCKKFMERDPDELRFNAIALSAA
# test-method-notes: High-throughput screening, Ub-RhoMP, single dose 1.25 µM
# Type: biochemical
# condition-parameters: individual amine building block (plate NCN-5); read-out: BB %inhibition UCHL3
Please respond with reported inhibition at 1.25 µM for every item in the list.
Give bare numbers, in %.

*Q* Provide value of inhibition at 1.25 µM for this record tested with UCHL3 (Homo sapiens, UniProt P15374): N#CN1C[C@@H]2C[C@H]1CN2
*A* -4.6

*Q* Notebook entry, UCHL3 (Homo sapiens, UniProt P15374) assay: inhibition at 1.25 µM of N#CN1CCC2(CCNC2)C1 (stereo not drawn) = ?
*A* 8.6

Please find the next compound below.
*Q* Tell me reported inhibition at 1.25 µM for N#CN1CC[C@H](C(=O)Nc2nc3c(s2)CNCC3)C1 , tested with UCHL3 (Homo sapiens, UniProt P15374).
*A* -5.1

---

# measured-on: mUSP18 (Mus musculus)
# Construct: (46-368); His-tag (N); made in house
# test-method-notes: High-throughput screening, ISG15ct-RhoMP, single dose 1.25 µM
# Format: biochemical, murine
# condition-parameters: mUSP18 %inhibition; carboxylic acid (CA) building block alone; read-out: %inh CA only
parameter-measured: inhibition at 1.25 µM (%)
Give bare numbers, in %.

*Q* Request - read-out inhibition at 1.25 µM | tested on mUSP18 (Mus musculus) | molecule Cc1c[nH]c(=O)n1-c1cccc(C(=O)O)c1
*A* -10.2

*Q* Please provide the recorded inhibition at 1.25 µM for NS(=O)(=O)c1ccc(CCNS(=O)(=O)c2cccc(C(=O)O)c2)cc1 , tested on mUSP18 (Mus musculus).
*A* 7.79

*Q* Notebook entry, mUSP18 (Mus musculus) assay: inhibition at 1.25 µM of Cn1cc(S(=O)(=O)N2CCOCC2)cc1C(=O)O = ?
*A* -1.59

Would you kindly look at the next entry?
*Q* Short answer please: inhibition at 1.25 µM, mUSP18 (Mus musculus), entry Cc1cc(C(=O)O)ccc1Br
*A* -3.46

---

Kindly supply the reported inhibition at 1.25 µM values for the records listed here.
# measured-on: mUSP18 (Mus musculus, UniProt Q9WTV6)
# Construct: (46-368); His-tag (N); made in house
# test-method-notes: High-throughput screening, ISG15ct-RhoMP, single dose 1.25 µM
# Type: biochemical, murine
# condition-parameters: individual amine building block (plate NCN-5); read-out: BB %inhibition mUSP18
One number for each entry, in %.

*Q* For the compound shown here, N#CN1C[C@@H]2C[C@H]1CN2 [BB12] , give the reported inhibition at 1.25 µM.
*A* -0.7

I would be grateful if you could provide inhibition at 1.25 µM for each of the following entries.
1. N#CN1CCC2(CCNC2)C1 (stereo not drawn) [BB14]
2. N#CN1CC[C@H](C(=O)Nc2nc3c(s2)CNCC3)C1 [BB10]

*A*
-1
0.154

---

# measured-on: mUSP18 (Mus musculus, UniProt Q9WTV6)
# Construct: (46-368); His-tag (N); made in house
# test-method-notes: High-throughput screening, ISG15ct-RhoMP, single dose 1.25 µM
# Type: biochemical, murine
# condition-parameters: mUSP18 %inhibition; carboxylic acid (CA) building block alone; read-out: %inh CA only
parameter-measured: inhibition at 1.25 µM (%)
Numbers only, in %.

Below, each entry is followed by its recorded inhibition at 1.25 µM result.
*Q* I would be grateful if you could share the reported inhibition at 1.25 µM for Cc1ncsc1C(=O)N(C)c1ccccc1C(=O)O .
*A* -7.59

*Q* Please report the recorded inhibition at 1.25 µM for O=C(O)c1cccc(-c2ncn[nH]2)c1 .
*A* 8.13

*Q* Request the reported inhibition at 1.25 µM associated with O=C(O)c1cc(-n2cccc2)ccn1
*A* 6.21

*Q* Bench note: what inhibition at 1.25 µM did O=C(O)c1cncc(N2CCCC2)n1 show?
*A* 8.54

*Q* Returns the measured inhibition at 1.25 µM for the input compound. Input: Cn1nc(C2CCC2)cc1C(=O)O
*A* -1.28

*Q* Field request: inhibition at 1.25 µM | item: O=C(O)Cc1ccccc1[N+](=O)[O-]
*A* 7.76

*Q* Entry Cc1ccccc1-n1cc(C(=O)O)cn1 has what inhibition at 1.25 µM?
*A* -5.24

*Q* # lookup: inhibition at 1.25 µM of O=C(O)c1ncsc1Cc1ccccc1
*A* 7.6

*Q* For the compound shown here, O=C(O)c1ccc(N2CCOCC2)cc1 , give the reported inhibition at 1.25 µM.
*A* 2

*Q* Need inhibition at 1.25 µM, item O=C(O)c1cn(CCc2ccccc2)nn1
*A* 3.82

For each entry beneath this line, provide reported inhibition at 1.25 µM.
1. Cc1csc(N2CCC(C(=O)O)CC2)n1
2. CN(C)S(=O)(=O)c1ccc(N2CCCCC2)c(C(=O)O)c1
3. Cc1oc(-c2cccs2)nc1C(=O)O
4. O=C(O)c1sccc1Br
5. CC(C)c1cc(C(=O)O)n(-c2ccccc2)n1

*A*
1: 5.76; 2: -2.55; 3: 8.25; 4: -2.15; 5: -1.54

---

# measured-on: mUSP18 (Mus musculus, UniProt Q9WTV6)
# Construct: (46-368); His-tag (N); made in house
# test-method-notes: High-throughput screening, ISG15ct-RhoMP, single dose 1.25 µM
# Format: biochemical, murine
# condition-parameters: mUSP18 %inhibition; carboxylic acid (CA) with coupling reagents DIC/HOBT; read-out: %inh CA + DIC/HOBT
Consider the following compounds; for each one, report its inhibition at 1.25 µM.
Answers are plain numbers, in %.

Guide cases for inhibition at 1.25 µM, answers given:
*Q* Param readout= inhibition at 1.25 µM; system= mUSP18 (Mus musculus, UniProt Q9WTV6); entry= O=C(O)C1CC(=O)N(CCN2CCOCC2)C1 (stereo not shown) ; returns value.
*A* 1.88

*Q* I'm curious: which inhibition at 1.25 µM was measured for COc1ccc(OCc2cc(C)on2)c(C(=O)O)c1 tested on mUSP18 (Mus musculus, UniProt Q9WTV6)?
*A* 3.72

*Q* Kindly state the measured inhibition at 1.25 µM obtained for O=C(O)c1cccn1-c1c(Cl)cccc1Cl with mUSP18 (Mus musculus, UniProt Q9WTV6).
*A* 98.1

*Q* API: value(readout= inhibition at 1.25 µM, system= mUSP18 (Mus musculus, UniProt Q9WTV6), query= O=C(O)C1CC(=O)N(c2cnccn2)C1 (stereo not shown) )
*A* 11.5

*Q* Tell me reported inhibition at 1.25 µM for Cc1ccc(N(CCC(=O)O)S(=O)(=O)c2ccccc2)cc1 , tested with mUSP18 (Mus musculus, UniProt Q9WTV6).
*A* 0.52

*Q* Please state recorded inhibition at 1.25 µM (tested on mUSP18 (Mus musculus, UniProt Q9WTV6)) of CC(C)(C)OC(=O)Nc1ccccc1C(=O)O
*A* -19.3

Provide reported inhibition at 1.25 µM for each item, in the same order as listed.
1. O=C(O)C1CCCN(c2ncccn2)C1 (stereo not shown)
2. CCS(=O)(=O)N1CCC(C(=O)O)(c2ccccc2)CC1
3. O=C(O)c1ccc(-c2ccncc2)[nH]c1=O
4. CCn1cc([1C@@H]2OCCC[1C@H]2C(=O)O)cn1
5. O=C(O)Cc1ccc(OCCOc2ccccc2)cc1

*A*
[-6.74, 0.71, -7.67, 4.12, 1.46]

Batch request: inhibition at 1.25 µM for each of the following compounds.
1. O=C(O)c1ccccc1OCc1cccs1
2. O=C(O)c1ccc(Cn2ccnn2)o1
3. Cc1cc(C(=O)O)c(C)n1C1CC1
4. Cn1cc(S(=O)(=O)N2CCCC(C(=O)O)C2)cn1 (stereo not shown)
5. O=C(O)c1ccc(N2CCCCCC2)nc1
6. O=C(CC1(C(=O)O)CCCC1)N1CCOCC1

*A*
[33.9, -0.81, 5.98, 2.3, 47, -3.79]
